PROCEDURE DETAILS: cell viability in Huh7 cells, primary screen, cytotoxicity control for HCV replication inhibitor project, CellTiter-Glo luminescence, basal, 48 h (AID 1143);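 also: Huh7 hepatoma cells carrying a hepatitis C replication reporter with no stimulus; test concentration not given here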
TEST CONTEXT: Huh7 HCV replicon, higher = more signal, called active from +8 up or from −8 down
Decision: z-score compared against -0.4; not below it gives MET, below it gives NOT MET.

Task: Record O=C1OCC=C[C@H]2OC34C=CCN(c5ccc6ccccc6c5)C(=O)[C@H]3N(CCCCCO)C(=O)[C@@H]4[C@@H]12 (some centres not stated) ; criterion: z-score no lower than -0.4. Met?
Result: MET

----------
System: wheat germ agglutinin (Triticum aestivum), Alexa647-labelled
PROCEDURE DETAILS: wheat germ agglutinin binders on compound microarrays, profiling panel, artefact control for SMM control-protein annotation, biochemical, small-molecule microarray, 635/667 nm fluorescence (AID 1140);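 also: score merges 667 nm feature emission with signal to noise over triplicate slides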
TEST CONTEXT: WGA-A647 binding, 635 nm fluorescence, higher = more signal
METRIC NAME: composite z-score

- CC(C)CNC(=O)[C@@]1(c2ccc([N+](=O)[O-])cc2)CC(=O)N(C2CCCCC2)[C@@H]1c1ccc(CO)cc1: 0.29

Task: Query: composite z-score; subject: COc1cc2c(cc1OC)CN(C(=O)[C@@H]1[C@H]3C(=O)O[C@H](c4ccccc4)[C@H](c4ccccc4)N3[C@H](c3ccc(O)cc3)[C@@]13C(=O)Nc1ccc(C#CCCO)cc13)CC2
Result: 0.7

Task: Could you tell me which composite z-score is on file for COC(=O)c1c2oc(c1C(=O)OC)C(=O)N1CCC[C@H]1Cn1nncc1CN(Cc1ccccc1)C(=O)N[C@H](CO)CC2 ?
Result: 0.18

Task: Given the entry CCCCCN1CC=CC23O[C@@H]4/C=C\CCC(C)OC(=O)C4[C@H]2C(=O)N(CCCCCCO)[C@@H]3C1=O (some centres undefined) , report its measured composite z-score.
Result: -0.65

Task: # get_value(readout='composite z-score', item= O=C1O[C@H](c2ccccc2)[C@H](c2ccccc2)N2[C@H]1[C@@H](C(=O)N1CCCCCCC1)[C@]1(C(=O)Nc3ccc(C#CC4(O)CCCCCC4)cc31)[C@H]2c1ccc(O)cc1 )
Result: 0.757

Task: # get_value(readout='composite z-score', item= C=C(C)[C@@H]1CC=C(C(O)C2C=CC3C(=O)N(c4ccccc4)C(=O)C3N2Nc2ccc(C#N)cc2)CC1 (some centres undefined) )
Result: 1.32

Task: Record request: composite z-score value, item Cc1ccc([C@H]2C(C(=O)O)=C[C@@H](C(C)(C)C)N2S(=O)(=O)c2ccc(C)cc2)cc1
Result: 1.3

Task: Data request, read-out composite z-score, for C[C@]1(C(=O)NCCN2CCOCC2)c2ccccc2C(=O)N(Cc2cc(F)cc(C(F)(F)F)c2)[C@H]1c1ccc(CO)cc1
Result: 0.294

Task: Record request: composite z-score value, item C=C(COC)/C(=C/C[C@@H](OC(C)=O)c1ccc(CO)o1)c1cc(C(=O)OC)ccc1OC
Result: -0.188

Task: I'd like to know its composite z-score. The molecule in question is COc1ccc([Si](C)(C)[C@@H]2[C@@H](CCn3cc([C@H](O)c4ccccc4)nn3)O[C@]3(C(=O)N(c4ccccc4)c4ccccc43)[C@H]2C)cc1
Result: -0.348

----------
PROCEDURE DETAILS: small-molecule binders of probe aInhba, primary screen, biochemical, small-molecule microarray, 635/667 nm fluorescence (AID 1148);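 also: score merges 667nm spot fluorescence with signal-to-noise for antibody binding to printed compounds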
TEST CONTEXT: higher = more signal
composite z-score listing for selected molecules.
Just the number, please, no unit after it.

Worked cases, answers included:
* COCC(=C=CC[C@@H](O)c1ccc(OCCO)cc1)CCO | -0.0762
* C=C[C@H](C)[C@H](OC(=O)Nc1ccc(OC)cc1)c1ccc(OCCO)cc1 | -0.314
* CCc1cccc(NC(=O)O[C@H]2[C@H](OC(=O)Nc3ccccc3)[C@H](OC(=O)Nc3ccccc3)[C@@H](OC)O[C@@H]2CO)c1 | 0.212
* COc1ccc(CCNC(=O)[C@@]2(Cc3ccccc3I)c3ccccc3C(=O)N(Cc3ccccc3Cl)[C@H]2c2ccc(CO)cc2)cc1 | 0.502
* Cc1cccc([C@H]2C[C@H]3C(I)=C[C@@H]2C(=O)[C@]32CO2)c1 | -0.0762

Task: Returns the measured composite z-score for the input molecule. Input: C=CCC(OC(C)=O)[C@@H]1[C@@H](N(Cc2ccc(-c3ccccc3)cc2)C(=O)c2ccc(C)cc2)c2cc(OCCCO)ccc2N1C(=O)Cc1ccc2ccccc2c1 (stereo partly drawn)
Result: -0.0986

Task: May I ask what composite z-score has been recorded for O=C1C2C=CC(C(O)c3ccc(I)cc3)N(Nc3ccccc3)C2C(=O)N1c1ccccc1 (stereo not drawn) ?
Result: 0.151

Task: Endpoint output: composite z-score of O=C1C2C=CC(C(O)c3cccc(O)c3)N(Nc3ccccc3)C2C(=O)N1c1ccccc1 (stereo not drawn) . Value?
Result: -0.0645

----------
Listing of entries alongside the reported composite z-score.
PROCEDURE DETAILS: small-molecule binders of probe aInhba, primary screen, biochemical, small-molecule microarray, 635/667 nm fluorescence (AID 1148);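 also: score merges 667nm spot fluorescence with signal-to-noise for antibody binding to printed compounds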
TEST CONTEXT: higher = more signal
Kindly provide the number alone.

Example results:
- NCCCCCNC(=O)[C@H]1C[C@H]2C(=O)N[C@@H](Cc3ccccc3)C(=O)N2[C@H]1c1ccc(O)cc1: 0.641
- Cc1ccccc1C(O)C1C=CC2C(=O)NC(=O)C2N1Nc1ccc(Cl)cc1Cl (centres undefined): 0.319
- C[C@]1(C(=O)NCC(F)(F)F)c2ccccc2C(=O)N(Cc2ccccc2)[C@H]1c1ccc(CO)cc1: -0.0719

Task: What value of measured composite z-score is listed for C=CCN1C(=O)[C@]2(O[C@H](CCO)[C@@H]([Si](C)(C)c3ccc(OC)cc3)[C@@H]2C)c2cc(NC(=O)c3ccc(OC)cc3)ccc21 ?
Result: 0.0541

Task: Which composite z-score value belongs to C=C(COC)/C(=C/C[C@H](OC(C)=O)c1cccc(OCCO)c1)c1cnc2ccccc2c1 ?
Result: 0.109

Task: Which measured composite z-score value corresponds to O=C1O[C@H](c2ccccc2)[C@H](c2ccccc2)N2[C@H]1[C@@H](C(=O)N1CCCCCCC1)[C@]1(C(=O)Nc3ccc(C#CC4(O)CCCCCC4)cc31)[C@H]2c1ccccc1OCCO ?
Result: 1.97

Task: Looking for the measured composite z-score of CC1(C)C(=O)C(c2ccccc2)=C2CN3C(=O)N(CCc4ccccc4)C(=O)C3(Cc3ccc(C(F)(F)F)cc3)C=C21 (centres undefined) , can you help?
Result: 0.196

Task: I'd like to know its composite z-score. The molecule in question is COc1ccc(C(=O)Nc2cccc(CN3C(=O)[C@@]4(O[C@@H](CC(=O)N(CCO)Cc5ccccc5)[C@H]([Si](C)(C)c5ccc(OC)cc5)[C@H]4C)c4ccccc43)c2)cc1
Result: -0.101

Task: Quick check: composite z-score of COCCCNC(=O)[C@@]1(Sc2ccc(C)cc2)CC(=O)N(C(C)C)[C@@H]1c1ccc(CO)cc1I ?
Result: -0.0762

----------
PROCEDURE DETAILS: inhibitors of hydroxyurea-induced Chk1 phosphorylation, primary screen, imaging, HeLa, phospho-Chk1 nuclear intensity (AID 1187); also: test concentration not given here
TEST CONTEXT: hydroxyurea-induced phospho-Chk1 immunofluorescence imaging, higher = more signal
Below, each of the molecules is paired with its reported z-score value.
API note: the answer field is a bare number with no unit suffix.

• Nc1cc(Br)ccc1C(=O)O = 0.343

Task: Item CN1C(=O)[C@@H]2[C@@H](CC(COc3ccccc3)=C([C@H](O)CCc3ccccc3)[C@@H]2CO)C1=O has what recorded z-score?
Result: -1.34

Task: For the molecule CCCC=C(CCC)[C@@H](NC(=O)CCc1ccccc1)c1ccc(C(F)(F)F)cc1 , what z-score is on record?
Result: -0.287

Task: # get_value(readout='z-score', item= NC(=O)[C@@H]1[C@H]2C(=O)O[C@H](c3ccccc3)[C@H](c3ccccc3)N2[C@H](c2ccc(OCCO)cc2)[C@@]12C(=O)Nc1ccc(C#CCCO)cc12 )
Result: -0.804

----------
PROCEDURE DETAILS: S. cerevisiae RM11-1a growth modifiers, primary screen, strain RM11-1a, OD600, basal, 24 h (AID 1177);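 also: cultures grown under basal conditions with no added stressor; test concentration not given here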
TEST CONTEXT: OD600, 24 h, higher = more signal, called active from +8 up or from −8 down
METRIC NAME: z-score
Number only, please.

Here are 3 compounds together with their reported answers.
• CC(C)(C)OC(=O)CC[C@]1(C(=O)N2CCCCC2)COC(c2ccc(OCCCO)cc2)=N1 = -0.398
• CC(C)CNC(=O)[C@@]1(C)c2ccccc2C(=O)N(Cc2cc(C(F)(F)F)cc(C(F)(F)F)c2)[C@H]1c1ccc(CO)cc1 = -0.46
• COc1cc(NN2C(C(O)c3cc(OC)c(OC)c(OC)c3)C=CC3C(=O)N(c4ccccc4)C(=O)C32)cc(OC)c1OC (centres undefined) = -0.147

Task: Please look up its z-score: O=C1O[C@H](c2ccccc2)[C@H](c2ccccc2)N2[C@H]1[C@@H](C(=O)N1CCCCCCC1)[C@]1(C(=O)Nc3ccc(C#CC4(O)CCCCCC4)cc31)[C@H]2c1ccccc1OCCO
Result: 2.45

Task: Field request: z-score | item: COCCOC(=O)N1C(=O)[C@@]2(c3cc(C#CC4=CCCCC4)ccc31)[C@H](C(=O)N1CCCCCCC1)[C@H]1C(=O)O[C@H](c3ccccc3)[C@H](c3ccccc3)N1[C@@H]2c1ccc(OCCO)cc1
Result: 1.16

Task: Query: z-score; subject: O=C1N[C@@H](Cc2ccccc2)C(=O)N2[C@@H]1C[C@@H](C(=O)O)[C@H]2c1ccc(O)cc1
Result: -0.319

Task: // z-score lookup, key: CCOC(=O)C1=CC[C@@H](c2ccccc2)N(S(=O)(=O)c2ccc(C)cc2)[C@H]1c1cccc(OC)c1
Result: 1.21

Task: Please look up its z-score: COC(=O)C(CC#Cc1ccc2c(c1)[C@]1(C(=O)N2)[C@H](c2ccc(OCCO)cc2)N2[C@H](c3ccccc3)[C@H](c3ccccc3)OC(=O)[C@H]2[C@@H]1C(=O)N1CCN(c2ncccn2)CC1)C(=O)OC
Result: 1.79

Task: Look at this compound and give its reported z-score. CCCNC(=O)[C@@]1(C)c2ccccc2C(=O)N(Cc2ccccc2)[C@H]1c1ccc(CO)cc1
Result: -0.637

Task: # get_value(readout='z-score', item= COCCOC(=O)N1C(=O)[C@@]2(c3cc(C#Cc4ccc(OC)cc4)ccc31)[C@H](C(=O)NC[C@H](O)c1ccccc1)[C@H]1C(=O)O[C@H](c3ccccc3)[C@H](c3ccccc3)N1[C@@H]2c1ccc(OCCO)cc1 )
Result: 2.67
